Hello, the source for this data is patent US10519114B2, in case you need it.

# targetDesc: rat δ (C6-DOR) opioid receptor (Rattus norvegicus)
# Sequence (P33533 whole entry): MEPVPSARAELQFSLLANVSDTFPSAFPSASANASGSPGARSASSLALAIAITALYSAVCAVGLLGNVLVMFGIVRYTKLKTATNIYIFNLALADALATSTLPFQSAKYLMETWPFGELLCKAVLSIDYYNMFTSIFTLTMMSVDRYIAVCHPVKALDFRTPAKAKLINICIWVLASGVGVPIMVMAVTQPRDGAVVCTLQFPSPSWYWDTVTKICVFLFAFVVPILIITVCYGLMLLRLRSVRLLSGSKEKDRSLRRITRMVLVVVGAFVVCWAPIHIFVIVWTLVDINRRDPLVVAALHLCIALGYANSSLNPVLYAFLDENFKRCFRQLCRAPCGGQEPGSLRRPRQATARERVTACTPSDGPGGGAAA
# procedureText: Stimulation of [35S]GTPγS binding, DOR
# conditionContext: [35S]GTPγS binding, C6-DOR membranes; mean ± standard error
# Procedure: In Vitro Pharmacology-Cell Lines and Membrane Preparations. All tissue culture reagents were purchased from Gibco Life Sciences (Grand Island, N.Y., U.S.). […] Protein concentration was determined via Bradford assay using bovine serum albumin as the standard. Stimulation of [^35S]GTPyS Binding. […] The reaction was terminated by rapidly filtering through GF/C filters and washing 10 times with GTPyS buffer, and retained radioactivity was measured as described above. […]
pEC50: −log10 of the molar value.
Mark no for pEC50 values under 7, and yes for everything at or above.

| compound | classLabel |
| --- | --- |
| CCCCCCc1ccc2c(c1)[C@H](NC(=O)[C@@H](N)Cc1c(C)cc(O)cc1C)CCN2 [Compound 1011] | yes |
| CCCc1cc(Cc2ccccc2)cc2c1NCC[C@H]2NC(=O)[C@@H](N)Cc1c(C)cc(O)cc1C [Compound 1056] | no |
| Cc1cc(O)cc(C)c1C[C@H](N)C(=O)N[C@@H]1CCNc2c1cc(Cc1ccccc1)cc2C(F)(F)F [Compound 1129] | yes |
| Cc1cc(O)cc(C)c1C[C@H](N)C(=O)N[C@@H]1CCNc2c(CN3CCNCC3)cc(Cc3ccccc3)cc21 [Compound 1131] | no |
| CCCN1CC[C@@H](NC(=O)[C@@H](N)Cc2c(C)cc(O)cc2C)c2cc(Cc3ccccc3)ccc21 [Compound 1006] | no |
| Cc1cc(O)cc(C)c1C[C@H](N)C(=O)N[C@@H]1CCNc2ccc(CC3Cc4ccc(O)cc4C3)cc21 (stereo partly shown) [Compound 1038] | no |
| CC(=O)N1CC[C@@H](NC(=O)[C@@H](N)Cc2c(C)cc(O)cc2C)c2cc(Oc3ccccc3)ccc21 [Compound 1019] | no |
| CCCCc1cc(Cc2ccccc2)cc2c1NCC[C@H]2NC(=O)[C@@H](N)Cc1c(C)cc(O)cc1C [Compound 1126] | no |
| COc1cc(Cc2ccccc2)cc2c1N(C(C)=O)CC[C@H]2NC(=O)[C@@H](N)Cc1c(C)cc(O)cc1C [Compound 1076] | yes |
| Cc1cc(O)cc(C)c1C[C@H](N)C(=O)N(C)[C@@H]1CCNc2ccc(Cc3ccccc3)cc21 [Compound 1001] | no |
| Cc1cc(O)cc(C)c1C[C@H](N)C(=O)N[C@@H]1C[C@@H](C)Nc2ccc(Cc3ccccc3)cc21 [Compound 1014] | no |
| Cc1cc(O)cc(C)c1C[C@H](N)C(=O)N[C@@H]1CCNc2c(Br)cc(Cc3ccccc3)cc21 [Compound 1128] | yes |
| Cc1cc(O)cc(C)c1C[C@H](N)C(=O)N[C@@H]1CCN(C)c2ccc(Cc3ccccc3)cc21 [Compound 1004] | no |
| Cc1cc(O)cc(C)c1C[C@H](N)C(=O)N[C@@H]1CCNc2c1cc(Cc1ccccc1)cc2C(C)(C)C [Compound 1057] | no |
| CCc1cc(Cc2ccccc2)cc2c1NCC[C@H]2NC(=O)[C@@H](N)Cc1c(C)cc(O)cc1C [Compound 1127] | yes |
| Cc1cc(O)cc(C)c1C[C@H](N)C(=O)N[C@@H]1CCNc2ccc(CN3CCc4ccc(F)cc4C3)cc21 [Compound 1054] | yes |
| Cc1cc(O)cc(C)c1C[C@H](N)C(=O)N[C@@H]1CCNc2cc(O)c(Cc3ccccc3)cc21 [Compound 1046] | no |
| Cc1cc(O)cc(C)c1C[C@H](N)C(=O)N[C@H]1CCNc2ccc(Oc3ccccc3)cc21 [Compound 1018] | no |
| Cc1cc(O)cc(C)c1C[C@H](N)C(=O)N[C@@H]1CCC(C)(C)c2ccc(Cc3ccccc3)cc21 [Compound 1122] | no |
| CC(=O)N1CC[C@H](NC(=O)[C@@H](N)Cc2c(C)cc(O)cc2C)c2cc(Oc3ccccc3)ccc21 [Compound 1020] | no |
| Cc1cc(O)cc(C)c1C[C@H](N)C(=O)N[C@@H]1CCNc2c(CN3CCOCC3)cc(Cc3ccccc3)cc21 [Compound 1099] | no |
| CC(=O)N1CC[C@@H](NC(=O)[C@@H](N)Cc2c(C)cc(O)cc2C)c2cc(Cc3ccccc3)cc(Cc3ccccc3)c21 [Compound 1042] | yes |
